Target: UniProtKB P37136
Sequence (P37136 whole entry): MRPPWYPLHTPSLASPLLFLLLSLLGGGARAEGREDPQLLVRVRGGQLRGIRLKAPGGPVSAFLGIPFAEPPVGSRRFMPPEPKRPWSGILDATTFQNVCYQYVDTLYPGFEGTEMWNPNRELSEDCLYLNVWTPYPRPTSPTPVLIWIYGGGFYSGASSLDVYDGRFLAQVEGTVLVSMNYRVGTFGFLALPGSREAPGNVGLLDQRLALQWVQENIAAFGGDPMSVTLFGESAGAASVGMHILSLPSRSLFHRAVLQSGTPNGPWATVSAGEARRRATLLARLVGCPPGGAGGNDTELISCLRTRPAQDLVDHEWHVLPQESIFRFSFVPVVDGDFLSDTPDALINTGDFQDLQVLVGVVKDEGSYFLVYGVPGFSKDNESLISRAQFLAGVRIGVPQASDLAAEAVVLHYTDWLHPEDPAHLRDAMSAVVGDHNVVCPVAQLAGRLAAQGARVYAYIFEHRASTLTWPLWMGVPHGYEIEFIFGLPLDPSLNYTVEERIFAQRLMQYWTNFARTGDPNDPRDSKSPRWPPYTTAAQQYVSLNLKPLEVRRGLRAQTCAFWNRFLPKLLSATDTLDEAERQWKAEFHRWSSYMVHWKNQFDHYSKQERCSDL
For each of the compounds below, state its log10 IC50.
Please interpret these as log10 of IC50 where IC50 is in µM.

Record summary for COc1cc2c(cc1OC)C(=O)C(CCCCCCCN[C@H]1CCCc3[nH]c(=O)ccc31)C2 (mixture of isomers) : reported log10 IC50 = 0.27

Record summary for COc1ccc(C(=O)OCCCN[C@H]2CCCc3[nH]c(=O)ccc32)cc1OC : reported log10 IC50 = 2.21

Record summary for COc1cc2c(cc1OC)C(=O)C(CCCN[C@H]1CCCc3[nH]c(=O)ccc31)C2 (mixture of isomers) : reported log10 IC50 = 1.61

Record summary for COc1ccc(C(=O)OCCCCCCCCCN[C@H]2CCCc3[nH]c(=O)ccc32)cc1OC : reported log10 IC50 = 0.99

Record summary for COc1cc2c(cc1OC)C(=O)C(CCCCCCN[C@H]1CCCc3[nH]c(=O)ccc31)C2 (mixture of isomers) : reported log10 IC50 = -1.43

Record summary for COc1cc2c(cc1OC)C(=O)C(CCCCN[C@H]1CCCc3[nH]c(=O)ccc31)C2 (mixture of isomers) : reported log10 IC50 = -2.05

Record summary for COc1cc2c(cc1OC)C(=O)C(CCCCN[C@@H]1CCCc3[nH]c(=O)ccc31)C2 (mixture of isomers) : reported log10 IC50 = -0.28

Record summary for COc1cc2c(cc1OC)C(=O)C(CCCCCCCCCN[C@H]1CCCc3[nH]c(=O)ccc31)C2 (mixture of isomers) : reported log10 IC50 = 0.41

Record summary for COc1ccc(C(=O)OCCCCN[C@H]2CCCc3[nH]c(=O)ccc32)cc1OC : reported log10 IC50 = 0.61

Record summary for COc1ccc(C(=O)NCCCN[C@H]2CCCc3[nH]c(=O)ccc32)cc1OC : reported log10 IC50 = 1.94

Record summary for COc1ccc(C(=O)OCCCCCCCN[C@H]2CCCc3[nH]c(=O)ccc32)cc1OC : reported log10 IC50 = 0.91

Record summary for COc1ccc(OCCCCCCN[C@H]2CCCc3[nH]c(=O)ccc32)cc1OC : reported log10 IC50 = 0.60

Cited source for all entries: ChEMBL document CHEMBL2321689
